Biological target: Alpha-1B adrenergic receptor (Rattus norvegicus)
Sequence (P15823 whole entry): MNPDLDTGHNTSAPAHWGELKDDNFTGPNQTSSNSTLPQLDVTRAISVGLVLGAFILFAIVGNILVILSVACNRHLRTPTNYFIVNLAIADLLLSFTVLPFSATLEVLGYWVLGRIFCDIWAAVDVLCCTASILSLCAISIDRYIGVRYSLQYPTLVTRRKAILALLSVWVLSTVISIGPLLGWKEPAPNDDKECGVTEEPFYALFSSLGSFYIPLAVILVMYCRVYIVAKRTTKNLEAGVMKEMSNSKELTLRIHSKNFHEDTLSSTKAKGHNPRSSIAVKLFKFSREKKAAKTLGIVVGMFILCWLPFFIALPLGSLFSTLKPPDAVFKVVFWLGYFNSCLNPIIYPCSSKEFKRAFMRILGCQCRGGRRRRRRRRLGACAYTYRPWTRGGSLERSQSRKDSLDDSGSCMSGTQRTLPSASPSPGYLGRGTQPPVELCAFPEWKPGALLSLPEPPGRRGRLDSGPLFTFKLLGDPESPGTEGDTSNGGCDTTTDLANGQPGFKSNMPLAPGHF
Record set: Ki | Alpha-1B adrenergic receptor (Rattus norvegicus) | literature, multiple sources.
Measured property: Ki (nM)

| Molecule | Assay system | Ki (nM) |
| --- | --- | --- |
| c1ccc(CCCN2CCC(c3c[nH]c4ccccc34)CC2)cc1 | Alpha-1B adrenergic receptor (Rattus norvegicus) | 13 |

(A) Clc1ccc(-n2cc(CCCCN3CCN(c4ccccc4)CC3)cn2)cc1
(B) COc1cc2nc(N3CCN(C(=O)c4ccco4)[C@H](C(=O)NC(C)(C)C)C3)nc(N)c2cc1OC
(C) c1ccc2c(C3CCN(CCCN4CCCCC4)CC3)noc2c1
Input: Put these in order: smallest Ki first, largest last. List the labels according to the requested ordering.
Output: B, C, A

(P) COc1cccc(OC)c1OCCNC[C@H]1Oc2ccccc2O[C@@H]1c1ccc(C)cc1
(Q) COc1cccc(OC)c1OCCNC[C@@H]1Oc2ccccc2O[C@H]1c1ccc(C)cc1
Input: # compare Ki for P vs Q ; return the one with the smaller value To answer, give the label that identifies your chosen option.
Output: Q

(A) Clc1ccc(-n2cc(CCCN3CCN(c4ccccc4)CC3)cn2)cc1
(B) COc1cc2nc(N3CCN(C(=O)C4CCCO4)CC3)nc(N)c2cc1OC (centres undefined)
Input: # compare Ki for A vs B ; return the one with the smaller value To answer, give the label that identifies your chosen option.
Output: B
